Target: rlDHFR (Rattus norvegicus, UniProt Q920D2)
Sequence (Q920D2 1-187): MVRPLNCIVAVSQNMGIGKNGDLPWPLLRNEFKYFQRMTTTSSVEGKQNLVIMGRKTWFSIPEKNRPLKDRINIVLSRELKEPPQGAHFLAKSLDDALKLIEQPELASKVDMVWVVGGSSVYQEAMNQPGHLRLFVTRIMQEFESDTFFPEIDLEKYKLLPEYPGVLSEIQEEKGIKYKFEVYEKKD
pIC50: −log10 of the molar value.
ASSAY_METRIC: pIC50

                                   compound  recorded_value
0  COc1ccc(OC)c(CN(CC2CC2)c2ccc3nc(N)nc(N)c3c2)c1 [Compound 12]            8.02

====

Target: pcDHFR (Pneumocystis carinii, UniProt P16184)
Sequence (P16184 whole entry): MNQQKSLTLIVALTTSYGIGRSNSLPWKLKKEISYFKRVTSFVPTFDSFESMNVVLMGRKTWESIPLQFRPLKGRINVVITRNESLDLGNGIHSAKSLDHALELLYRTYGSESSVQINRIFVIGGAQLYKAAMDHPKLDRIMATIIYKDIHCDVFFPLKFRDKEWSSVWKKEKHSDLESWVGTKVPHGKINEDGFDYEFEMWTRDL
ASSAY_METRIC: IC50 (µM)

>>> print(df.to_string())
                                   molecule                       experimental_target  assay_metric  unit_label  recorded_value
0  COc1ccc(OC)c(CN(CC2CC2)c2ccc3nc(N)nc(N)c3c2)c1 [Compound 12]  pcDHFR (Pneumocystis carinii, UniProt P16184)          IC50          µM           0.025

====

Biological target: tgDHFR (Toxoplasma gondii)
Sequence (Q07422 whole entry): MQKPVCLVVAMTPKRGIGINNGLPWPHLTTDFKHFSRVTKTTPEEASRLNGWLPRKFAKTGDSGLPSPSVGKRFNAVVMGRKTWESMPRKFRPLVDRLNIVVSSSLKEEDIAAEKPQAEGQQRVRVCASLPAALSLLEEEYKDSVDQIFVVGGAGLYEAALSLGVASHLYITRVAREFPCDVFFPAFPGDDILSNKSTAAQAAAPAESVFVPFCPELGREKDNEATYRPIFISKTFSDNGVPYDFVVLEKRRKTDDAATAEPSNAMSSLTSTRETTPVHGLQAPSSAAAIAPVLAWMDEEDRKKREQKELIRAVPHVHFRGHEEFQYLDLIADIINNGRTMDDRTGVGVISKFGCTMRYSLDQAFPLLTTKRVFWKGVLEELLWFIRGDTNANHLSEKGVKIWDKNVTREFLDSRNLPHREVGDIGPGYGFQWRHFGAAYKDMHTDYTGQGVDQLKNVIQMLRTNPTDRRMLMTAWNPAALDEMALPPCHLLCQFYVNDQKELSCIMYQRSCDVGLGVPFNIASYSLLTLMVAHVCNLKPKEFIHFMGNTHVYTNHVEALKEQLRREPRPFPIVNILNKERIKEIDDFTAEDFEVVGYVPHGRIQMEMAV
Test: biochemical
ASSAY_METRIC: IC50 (nM)

>>> df
                                   molecule  recorded_value
0  COc1ccc(OC)c(CN(CC2CC2)c2ccc3nc(N)nc(N)c3c2)c1 [Compound 12]             7.3
